Molecular target: 12-lipoxygenase (Rattus norvegicus, UniProt F1LQ70)
Construct: The pelleted platelets were rinsed twice with a washing buffer; from tissue; host or cells: platelets of Sprague Dawley male rat (sonicate, 100,000 x g supernatant)
Sequence (F1LQ70 1-663): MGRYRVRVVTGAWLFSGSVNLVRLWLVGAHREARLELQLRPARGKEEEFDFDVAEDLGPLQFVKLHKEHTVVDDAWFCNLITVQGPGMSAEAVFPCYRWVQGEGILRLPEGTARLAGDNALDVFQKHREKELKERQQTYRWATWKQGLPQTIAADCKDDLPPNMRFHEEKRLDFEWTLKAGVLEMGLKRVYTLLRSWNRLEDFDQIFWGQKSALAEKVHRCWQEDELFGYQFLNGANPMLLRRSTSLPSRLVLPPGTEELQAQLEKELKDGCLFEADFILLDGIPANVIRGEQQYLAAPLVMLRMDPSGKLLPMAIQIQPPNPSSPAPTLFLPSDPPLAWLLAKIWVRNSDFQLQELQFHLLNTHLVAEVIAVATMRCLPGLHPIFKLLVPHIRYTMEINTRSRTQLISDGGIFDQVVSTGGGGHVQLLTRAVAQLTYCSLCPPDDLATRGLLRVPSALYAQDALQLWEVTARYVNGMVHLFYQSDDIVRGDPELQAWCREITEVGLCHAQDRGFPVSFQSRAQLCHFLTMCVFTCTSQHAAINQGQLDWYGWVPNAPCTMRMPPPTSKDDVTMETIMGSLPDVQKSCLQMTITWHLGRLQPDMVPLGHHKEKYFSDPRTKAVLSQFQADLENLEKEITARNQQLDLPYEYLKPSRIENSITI
Test: 12-lipoxygenase inhibition assay (rat platelet enzyme solution)
Type: biochemical, Sprague Dawley male rat
Conditions: Table 3; read-out: IC50 values of 12-lipoxygenase (mole)
IC50 values by entry
endpoint: IC50 (nM)

CCc1ccc(C(C#N)=Cc2ccc(O)c(O)c2)cc1 : 5.8
N#CC(=Cc1cc(O)c(O)c(O)c1)c1ccc(Cl)cc1 : 14
N#CC(=Cc1cccc(Cl)c1)c1ccc(O)c(O)c1 [Ex. 22, α-cyano-3'-chloro-3,4-dihydroxystilbene] : 5.1
N#CC(=Cc1ccc(O)c(O)c1)c1ccc(I)cc1 [Ex. 5, α-cyano-4-iodo-3',4'-dihydroxystilbene] : 5.4

----------
Attribute: metabolised at 0.5 h, 10 µM
Test: Deacylation by esterases present in the enzyme solution prepared from rat platelets
Type: in vitro ADME
Settings: platelet enzyme solution, Reaction time 30 min., 37° C., read-out: conversion (%) from Formula 34b or Formula 35b to Formula 32b
endpoint: metabolised at 0.5 h, 10 µM (%)

CCC(=O)Oc1ccc(C=C(C#N)c2ccc(Cl)cc2)cc1OC(=O)CC [Formula 35b] : 56.5
CC(=O)Oc1ccc(C=C(C#N)c2ccc(Cl)cc2)cc1OC(C)=O [Formula 34b] : 70.9

----------
Target: 12-lipoxygenase (Rattus norvegicus, UniProt F1LQ70)
Construct: The pelleted platelets were rinsed twice with a washing buffer; from tissue; host or cells: platelets of Sprague Dawley male rat (sonicate, 100,000 x g supernatant)
Assay: 12-lipoxygenase inhibition assay (rat platelet enzyme solution)
Type: biochemical, Sprague Dawley male rat
Settings: Table 12; deacylated compounds; read-out: 12-Lipoxygenase inhibitory effect of deacylated compounds (IC50 values)
endpoint: IC50 (nM)

N#CC(=Cc1ccc(O)c(O)c1)c1cc(Br)cs1 : 3
N#CC(=Cc1ccc(O)c(O)c1)c1ccc(Cl)cc1 [Ex. 1, α-cyano-4-chloro-3',4'-dihydroxystilbene] : 4.2
N#CC(=Cc1ccc(F)cc1)c1ccc(O)c(O)c1 [Ex. 21, α-cyano-4'-fluoro-3,4-dihydroxystilbene] : 4.8
Cc1ccc(C=C(C#N)c2ccc(O)c(O)c2)cc1 [Ex. 24, α-cyano-4'-methyl-3,4-dihydroxystilbene] : 4.5
N#CC(=Cc1ccc(Br)cc1)c1ccc(O)c(O)c1 [Ex. 23, α-cyano-4'-bromo-3,4-dihydroxystilbene] : 3.6
N#CC(=Cc1ccc(Cl)cc1)c1ccc(O)c(O)c1 [Ex. 2, α-cyano-4'-chloro-3,4-dihydroxystilbene] : 1.8
N#CC(=Cc1ccc(O)c(O)c1)c1ccc([N+](=O)[O-])cc1 [Ex. 17, α-cyano-4-nitro-3',4'-dihydroxystilbene] : 8.8
N#CC(=Cc1ccc(O)c(O)c1)c1ccc(I)cc1 [Ex. 5, α-cyano-4-iodo-3',4'-dihydroxystilbene] : 5.4
N#CC(=Cc1cccc(Cl)c1)c1ccc(O)c(O)c1 [Ex. 22, α-cyano-3'-chloro-3,4-dihydroxystilbene] : 5.1
COc1ccc(C(C#N)=Cc2ccc(O)c(O)c2)cc1 [Formula 55b] : 6

----------
Target: 12-lipoxygenase (Rattus norvegicus)
Construct: The pelleted platelets were rinsed twice with a washing buffer; from tissue; host or cells: platelets of Sprague Dawley male rat (sonicate, 100,000 x g supernatant)
Assay: 12-lipoxygenase inhibition assay (rat platelet enzyme solution)
Format: biochemical, Sprague Dawley male rat
Details: Table 3; read-out: IC50 values of 12-lipoxygenase (mole)
pIC50: −log10 of the molar value.
endpoint: pIC50

N#CC(=Cc1ccc(Cl)cc1)c1ccc(O)c(O)c1 [Ex. 2, α-cyano-4'-chloro-3,4-dihydroxystilbene] : 8.74
Cc1ccc(C=C(C#N)c2ccc(O)c(O)c2)s1 : 8.11
Cc1ccc(C=C(C#N)c2ccc(O)c(O)c2)cc1 [Ex. 24, α-cyano-4'-methyl-3,4-dihydroxystilbene] : 8.60
N#CC(=Cc1ccc(O)c(O)c1)c1ccc(C#N)cc1 : 7.55
N#CC(=Cc1ccc(O)c(O)c1)c1ccc(F)cc1 : 8.32
Cc1ccc(C(C#N)=Cc2ccc(O)c(O)c2)cc1 : 8.35
N#CC(=Cc1ccc(Br)cc1)c1ccc(O)c(O)c1 [Ex. 23, α-cyano-4'-bromo-3,4-dihydroxystilbene] : 8.66
N#CC(=Cc1ccc(O)c(O)c1)c1ccc([N+](=O)[O-])cc1 [Ex. 17, α-cyano-4-nitro-3',4'-dihydroxystilbene] : 8.06
N#CC(=Cc1ccc(O)c(O)c1)c1cc(Br)cs1 : 8.52

----------
Listing of recorded pIC50 by entry.
Target: 5-lipoxygenase (Rattus norvegicus)
Construct: Cultured cells were collected and washed twice; host or cells: RBL-1 rat basophilic leukemia cells (sonicate, 10,000 x g supernatant)
Sequence (P12527 1-673): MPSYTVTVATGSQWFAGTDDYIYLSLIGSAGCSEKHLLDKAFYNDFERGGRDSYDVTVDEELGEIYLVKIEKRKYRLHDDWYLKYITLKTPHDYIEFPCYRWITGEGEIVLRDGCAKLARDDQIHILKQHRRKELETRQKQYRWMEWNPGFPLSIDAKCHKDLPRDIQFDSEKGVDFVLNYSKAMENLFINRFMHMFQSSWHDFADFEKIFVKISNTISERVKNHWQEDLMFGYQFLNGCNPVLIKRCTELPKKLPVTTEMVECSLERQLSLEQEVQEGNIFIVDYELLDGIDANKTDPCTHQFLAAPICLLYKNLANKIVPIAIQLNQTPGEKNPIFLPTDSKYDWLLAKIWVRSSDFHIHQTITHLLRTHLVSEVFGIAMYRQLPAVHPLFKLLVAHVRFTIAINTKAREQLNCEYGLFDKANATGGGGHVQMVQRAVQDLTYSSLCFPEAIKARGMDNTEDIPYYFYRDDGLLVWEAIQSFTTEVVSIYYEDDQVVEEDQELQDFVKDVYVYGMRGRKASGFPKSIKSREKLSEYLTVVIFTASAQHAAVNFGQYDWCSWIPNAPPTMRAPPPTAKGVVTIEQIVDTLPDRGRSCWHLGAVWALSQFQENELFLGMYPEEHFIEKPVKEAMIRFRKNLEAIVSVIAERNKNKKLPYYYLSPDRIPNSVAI
Test: 5-lipoxygenase inhibition assay (rat basophilic leukemia cell RBL-1 enzyme solution)
Type: biochemical
Settings: Table 3; read-out: IC50 values of 5-lipoxygenase (mole)
pIC50: −log10 of the molar value.
endpoint: pIC50

N#CC(=Cc1ccc(O)c(O)c1)c1ccc([N+](=O)[O-])cc1 [Ex. 17, α-cyano-4-nitro-3',4'-dihydroxystilbene] : 6.89
N#CC(=Cc1ccc(O)c(O)c1)c1ccc(C#N)cc1 : 7.00
Cc1ccc(C(C#N)=Cc2ccc(O)c(O)c2)cc1 : 7.32
N#CC(=Cc1ccc(O)c(O)c1)c1ccc(Cl)cc1 [Ex. 1, α-cyano-4-chloro-3',4'-dihydroxystilbene] : 7.42
Cc1ccc(C=C(C#N)c2ccc(O)c(O)c2)s1 : 7.18
N#CC(=Cc1ccc(O)c(O)c1)c1ccc(F)cc1 : 7.03
N#CC(=Cc1cccc(Cl)c1)c1ccc(O)c(O)c1 [Ex. 22, α-cyano-3'-chloro-3,4-dihydroxystilbene] : 7.47
N#CC(=Cc1ccc(O)c(O)c1)c1cc(Br)cs1 : 7.44
N#CC(=Cc1ccccc1)c1ccc(O)c(O)c1 [Ex. 20, α-cyano-3,4-dihydroxystilbene] : 7.02

----------
Target: 12-lipoxygenase (Rattus norvegicus)
Construct: The pelleted platelets were rinsed twice with a washing buffer; from tissue; host or cells: platelets of Sprague Dawley male rat (sonicate, 100,000 x g supernatant)
Assay: 12-lipoxygenase inhibition assay (rat platelet enzyme solution)
Format: biochemical, Sprague Dawley male rat
Conditions: 10^-7 (mole concentration); read-out: 12-Lipoxygenase inhibition ratio (%)
endpoint: inhibition at 0.1 µM (%)

N#CC(=Cc1ccc(O)c(O)c1)c1ccc(Cl)cc1 [Ex. 1, α-cyano-4-chloro-3',4'-dihydroxystilbene] : 98
N#CC(=Cc1cccc(O)c1)c1ccc(Cl)cc1 [Comp. Ex. 1, reference compound] : 0
COc1ccc(C=C(C#N)c2ccc(Cl)cc2)cc1O [Comp. Ex. 3, reference compound] : 0
N#CC(=Cc1ccc(O)cc1)c1ccc(Cl)cc1 [Comp. Ex. 2, reference compound] : 5
COc1cc(C=C(C#N)c2ccc(Cl)cc2)ccc1O [Comp. Ex. 4, reference compound] : 0
